# Test system: UACC-257
# assay_procedure: NCI tumour cell line growth inhibition, 48 h
Active and inactive are the calls of the source. Cut-off read from the data, not from the text of the source: active = GI50 up to about 1.1 µM and inactive = higher.
measured_property: GI50

INSERT INTO results (compound, assay_value) VALUES
  ('OCC1NC(CO)C(O)C1O (configuration not stated)', '> 100 µM (inactive)'),
  ('COc1ccc2cc(C(=O)CCC(=O)O)ccc2c1', '> 100 µM (inactive)'),
  ('COC1=CC(=O)C2=C(C1=O)[C@H]1CC[C@]3(C)[C@@H](OC(C)=O)CC[C@H]3[C@@H]1CC2', '27.1 µM (inactive)'),
  ('CCCCCCC(O)C/C=C/CCCCCC/C(C(=O)OC)=C(/O)C(=O)OCC (configuration not stated)', '> 100 µM (inactive)'),
  ('CCCCc1ccc(Nc2nc(SC)c3[nH]cnc3n2)cc1', '> 100 µM (inactive)'),
  ('BrC1=CN2C[n+]3cc(Br)c4ccccc4c3N=C2c2ccccc21', '22 µM (inactive)'),
  ('Cc1ccc([S+]([O-])c2cccs2)cc1 (configuration not stated)', '> 100 µM (inactive)'),
  ('Cc1ccc(C2(O)CC(c3ccc([N+](=O)[O-])o3)=NN2C(=O)COc2ccc(Cl)cc2)cc1 (configuration not stated)', '4.91 µM (inactive)'),
  ('CC(=O)/C=C/c1cccc(N=S)c1', '29.4 µM (inactive)'),
  ('CC(=O)N(CCc1ccccc1)C(C#N)c1ccc(OCCCCCCCCCCOc2ccc(C(C#N)N(CCc3ccccc3)C(C)=O)cc2)cc1 (configuration not stated)', '> 100 µM (inactive)'),
  ('Cc1cccc(NC(=S)N/N=C(/c2ccccc2)c2ccccn2)c1', '< 0.0162 µM (active)'),
  ('N#CCCC(C=O)(CCC#N)CCC#N', '> 100 µM (inactive)'),
  ('CC1(C)C(=O)N(c2ccccc2)C(=O)N1c1nc2ccccc2[nH]1', '> 100 µM (inactive)'),
  ('Cn1c(=O)nc2n(-c3cccc(Br)c3)c3ccccc3nc-2c1=O', '2.09 µM (inactive)'),
  ('Clc1cccc(-c2nnc(-c3nn(-c4ccccc4)c4nc5ccccc5nc34)o2)c1', '> 100 µM (inactive)'),
  ('CC(=O)c1[nH]c(NC(C)C)c(C(=S)Nc2ccccc2)c1N', '24 µM (inactive)'),
  ('O=c1cccccc1O.O=c1cccccc1O.O=c1cccccc1O.[SiH4]', '21 µM (inactive)'),
  ('COC(=O)C(C)(NC(=O)C(CC(=O)OC(C)(C)C)NC(=O)OC(C)(C)C)c1ccccc1 (configuration not stated)', '> 100 µM (inactive)'),
  ('N[C@H]1CCC[C@@H](O)C1O (some centres not stated)', '> 100 µM (inactive)'),
  ('CN(C)c1ccc2nc3c(ccc4ccccc43)[o+]c2c1', '4.67 µM (inactive)'),
  ('Clc1ccc(Cl)c(/N=N/c2cc3c4c(c2)CCCN4CCC3)c1', '> 10 µM (inactive)'),
  ('Cc1ccc(S(=O)(=O)NC(=O)NC2=NC(C)(C)N(c3ccc(Cl)c(Cl)c3)C(N)=N2)cc1', '36 µM (inactive)');
